# target-or-test-system: T1, human TREM2 (human, UniProt Q9NZC2 19-174, limits assumed)
# T1 construct: also called triggering receptor expressed on myeloid cells 2
# T1 sequence: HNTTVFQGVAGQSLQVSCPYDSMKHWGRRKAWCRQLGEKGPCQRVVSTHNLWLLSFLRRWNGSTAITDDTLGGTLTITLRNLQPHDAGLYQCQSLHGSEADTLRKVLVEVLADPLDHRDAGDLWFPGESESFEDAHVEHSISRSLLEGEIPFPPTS
# test-protocol: 2nd screen, 100 nM
Provide the reported Binding Signal of each item.

Request: What value of measured Binding Signal is listed for V35 (antibody, V domains shown, also called 6E7 variant V35) VH: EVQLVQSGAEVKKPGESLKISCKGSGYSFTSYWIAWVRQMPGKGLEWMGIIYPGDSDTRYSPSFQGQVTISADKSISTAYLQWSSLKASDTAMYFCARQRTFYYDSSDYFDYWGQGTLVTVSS VL: DIQMTQSPSSVSASVGDRVTITCRASQGISSWLAWYQQKPGKAPKLLIYAASSLQNGVPSRFSGSGSGTDFTLTISSLQPEDFATYFCQQAYSFPRTFGQGTKLEIK ?
Response: 0.29 fold over 6E7 parental antibody

Request: How about V81 (antibody, V domains shown, also called 6E7 variant V81) VH: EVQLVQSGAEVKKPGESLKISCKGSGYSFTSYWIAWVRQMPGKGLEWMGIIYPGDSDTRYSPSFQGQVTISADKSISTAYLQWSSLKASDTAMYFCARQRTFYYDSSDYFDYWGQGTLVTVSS VL: DIQMTQSPSSVSASVGDRVTITCRASQGISSLLAWYQQKPGKAPKLLIYAASSLQNGVPSRFSGSGSGTDFTLTISSLQPEDFATYFCQQADSFPRTFGQGTKLEIK ?
Response: 0.23 fold over 6E7 parental antibody

Request: Another: V94 (antibody, V domains shown, also called 6E7 variant V94) VH: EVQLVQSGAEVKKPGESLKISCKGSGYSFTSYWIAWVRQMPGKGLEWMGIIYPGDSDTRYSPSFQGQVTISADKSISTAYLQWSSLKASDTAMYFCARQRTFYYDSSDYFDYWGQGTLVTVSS VL: DIQMTQSPSSVSASVGDRVTITCRASQGISSWLAWYQQKPGKAPKLLIYAAASLQNGVPSRFSGSGSGTDFTLTISSLQPEDFATYFCQQADSFPRTFGQGTKLEIK
Response: 0.87 fold over 6E7 parental antibody

Request: And for V70 (antibody, V domains shown, also called 6E7 variant V70; LV-204/HV-15) VH: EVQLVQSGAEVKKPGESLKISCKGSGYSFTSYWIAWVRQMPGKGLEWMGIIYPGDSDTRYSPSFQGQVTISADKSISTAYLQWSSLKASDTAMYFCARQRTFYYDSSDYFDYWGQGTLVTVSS VL: DIQMTQSPSSVSASVGDRVTITCRASQGISSWLAWYQQKPGKAPKLLIYAAGSLQNGVPSRFSGSGSGTDFTLTISSLQPEDFATYFCQQADSFPRTFGQGTKLEIK ?
Response: 0.84 fold over 6E7 parental antibody
